System: E. aerogenes ATCC 35029
Format: cell-based
Conditions: ATCC 35029, pH 7.4
Experimental: The antibacterial activity of the lipopeptides was examined in sterile 96-well plates (Nunc F96 microtiter plates) in a final volume of 100 μl as follows: Aliquots (50 μl) of a suspension containing bacteria at concentration of 1×10^6 Colony-Forming Units (CFU)/ml in culture LB (Lauria broth) medium (pH 7.4 or pH 5.5) were added to 50 μl of water containing the lipopeptide in serial 2-fold dilutions in water. […] If not indicated otherwise, the bacterial growth was detected at pH 7.4.
Non-standard residues stand in square brackets, D forms with d. Residues, ends and D or L forms follow the SMILES beside them. *: point of attachment. Palmitoyl = CCCCCCCCCCCCCCCC(=O)*; Myristoyl = CCCCCCCCCCCCCC(=O)*
Reported Minimal Inhibitory Concentration, E. aerogenes ATCC 35029 values follow for various compounds
ENDPOINT LABEL: Minimal Inhibitory Concentration, E. aerogenes ATCC 35029

| COMPOUND | RESULT |
| --- | --- |
| CCCCCCCCCCCCCCCC(=O)N[C@H](CC(C)C)C(=O)N[C@@H](CCCCN)C(=O)N[C@@H](CCCCN)C(=O)N[C@H](CC(C)C)C(=O)N[C@H](CC(C)C)C(=O)N[C@@H](CCCCN)C(=O)N[C@@H](CCCCN)C(=O)N[C@H](CC(C)C)C(=O)N[C@H](CC(C)C)C(=O)N[C@@H](CCCCN)C(=O)N[C@@H](CCCCN)C(=O)N[C@H](CC(C)C)C(N)=O [lipopeptide 24] (Palmitoyl-[dL]KK[dL][dL]KK[dL][dL]KK[dL]-NH2) | >50 µM |
| CC(C)C[C@@H](N)C(=O)N[C@@H](CCCCN)C(=O)N[C@@H](CCCCN)C(=O)N[C@H](CC(C)C)C(=O)N[C@H](CC(C)C)C(=O)N[C@@H](CCCCN)C(=O)N[C@@H](CCCCN)C(=O)N[C@H](CC(C)C)C(=O)N[C@H](CC(C)C)C(=O)N[C@@H](CCCCN)C(=O)N[C@@H](CCCCN)C(=O)N[C@H](CC(C)C)C(N)=O [[D]-L6K6, LKKLLKKLLKKL, reference compound] (H-[dL]KK[dL][dL]KK[dL][dL]KK[dL]-NH2; N-terminus assumed) | >50 µM |
| CCCCCCCCCCCCCC(=O)N[C@H](CC(C)C)C(=O)N[C@@H](CCCCN)C(=O)N[C@@H](CCCCN)C(=O)N[C@H](CC(C)C)C(=O)N[C@H](CC(C)C)C(=O)N[C@@H](CCCCN)C(=O)N[C@@H](CCCCN)C(=O)N[C@H](CC(C)C)C(=O)N[C@H](CC(C)C)C(=O)N[C@@H](CCCCN)C(=O)N[C@@H](CCCCN)C(=O)N[C@H](CC(C)C)C(N)=O [lipopeptide 23] (Myristoyl-[dL]KK[dL][dL]KK[dL][dL]KK[dL]-NH2) | >50 µM |
